IC50 values by entry
- Target Or System: recombinant human NaV1.8 stably transfected HEK cells (Homo sapiens, UniProt Q9Y5Y9)
- Construct: expressed in transfected cells; host or cells: HEK cells, stably transfected
- Sequence (Q9Y5Y9 whole entry): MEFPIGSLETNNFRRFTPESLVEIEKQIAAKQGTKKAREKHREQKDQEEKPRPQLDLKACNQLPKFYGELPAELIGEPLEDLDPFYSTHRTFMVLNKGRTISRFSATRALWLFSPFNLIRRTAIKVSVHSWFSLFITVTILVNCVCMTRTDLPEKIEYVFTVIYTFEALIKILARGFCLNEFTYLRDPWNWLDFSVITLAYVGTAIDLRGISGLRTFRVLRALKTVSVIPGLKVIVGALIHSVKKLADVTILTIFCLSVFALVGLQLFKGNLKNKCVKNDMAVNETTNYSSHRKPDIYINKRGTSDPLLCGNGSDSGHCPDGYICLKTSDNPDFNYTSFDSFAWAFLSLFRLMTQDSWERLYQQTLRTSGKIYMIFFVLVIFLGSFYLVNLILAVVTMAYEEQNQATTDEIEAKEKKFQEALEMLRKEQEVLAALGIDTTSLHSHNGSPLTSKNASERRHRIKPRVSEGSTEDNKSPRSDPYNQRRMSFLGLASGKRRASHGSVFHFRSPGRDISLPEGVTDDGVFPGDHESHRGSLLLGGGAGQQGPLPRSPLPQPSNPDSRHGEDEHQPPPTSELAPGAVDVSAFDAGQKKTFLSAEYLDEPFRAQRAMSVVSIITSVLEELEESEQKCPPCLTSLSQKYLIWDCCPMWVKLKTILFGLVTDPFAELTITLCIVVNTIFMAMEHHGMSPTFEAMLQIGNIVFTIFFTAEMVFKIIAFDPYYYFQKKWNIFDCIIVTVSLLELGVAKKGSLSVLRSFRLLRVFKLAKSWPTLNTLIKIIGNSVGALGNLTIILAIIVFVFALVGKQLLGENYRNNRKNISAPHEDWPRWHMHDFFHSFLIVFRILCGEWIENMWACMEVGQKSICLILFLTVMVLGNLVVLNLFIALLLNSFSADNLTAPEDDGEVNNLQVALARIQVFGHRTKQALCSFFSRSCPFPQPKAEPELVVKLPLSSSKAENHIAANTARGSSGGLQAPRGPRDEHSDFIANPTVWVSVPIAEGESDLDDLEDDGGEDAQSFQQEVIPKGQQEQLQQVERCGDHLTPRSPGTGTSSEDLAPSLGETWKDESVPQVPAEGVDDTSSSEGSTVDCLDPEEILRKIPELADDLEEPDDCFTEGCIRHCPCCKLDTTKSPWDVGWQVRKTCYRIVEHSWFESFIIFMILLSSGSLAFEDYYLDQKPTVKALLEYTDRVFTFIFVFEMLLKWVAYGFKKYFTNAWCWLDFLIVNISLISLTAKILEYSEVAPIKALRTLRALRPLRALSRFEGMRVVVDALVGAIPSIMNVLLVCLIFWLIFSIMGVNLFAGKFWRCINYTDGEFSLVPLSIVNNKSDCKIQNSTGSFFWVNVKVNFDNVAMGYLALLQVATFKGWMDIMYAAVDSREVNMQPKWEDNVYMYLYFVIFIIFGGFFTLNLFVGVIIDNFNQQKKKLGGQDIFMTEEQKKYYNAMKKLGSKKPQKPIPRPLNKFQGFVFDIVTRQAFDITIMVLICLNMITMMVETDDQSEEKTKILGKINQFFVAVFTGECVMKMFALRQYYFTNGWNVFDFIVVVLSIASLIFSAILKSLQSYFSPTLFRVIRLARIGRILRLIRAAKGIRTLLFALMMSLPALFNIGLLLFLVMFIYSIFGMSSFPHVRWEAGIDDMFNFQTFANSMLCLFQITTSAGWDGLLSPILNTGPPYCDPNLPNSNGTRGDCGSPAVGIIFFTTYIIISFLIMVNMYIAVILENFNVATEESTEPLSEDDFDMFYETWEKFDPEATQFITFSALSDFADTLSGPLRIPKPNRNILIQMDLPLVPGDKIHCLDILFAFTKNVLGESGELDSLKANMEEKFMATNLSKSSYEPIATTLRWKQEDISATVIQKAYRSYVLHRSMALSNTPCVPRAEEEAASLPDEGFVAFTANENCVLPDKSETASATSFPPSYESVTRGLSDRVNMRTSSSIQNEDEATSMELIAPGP
- Experiment Notes: Compound profiling on NaV1.8, human NaV1.8 cell line, SyncroPatch384PE automated patch clamp assay (Example 115, third set of compounds, Table 27)
- Assay type: cell-based
- Particulars: resting state block (P1 measurement), human NaV1.8 HEK cells, Table 27 (third set of compounds), read-out: P1 IC50

Cc1cc(OC(F)(F)F)ccc1Oc1nnc(C(F)(F)F)cc1C(=O)Nc1ccc(C(N)=O)cc1 [Compound 37] : ≤ 200 nM
O=C(Nc1ccc[n+]([O-])c1)c1cc(C(F)(F)F)nnc1Oc1ccc(F)cc1Cl [Compound 62] : > 5000 nM
Cc1cc(-c2cnoc2)ccc1Oc1nnc(C(F)(F)F)cc1C(=O)Nc1cccc(S(C)(=O)=O)c1 [Compound 132] : 201 to 500 nM

Query molecule follows.
Under recombinant human NaV1.8 stably transfected HEK cells (Homo sapiens, UniProt Q9Y5Y9): IC50 value of Cc1cc(F)ccc1Oc1nnc(C(F)(F)F)cc1C(=O)Nc1cccc([S@@](C)(=N)=O)c1 [Compound 103] ? > 5000 nM

* * *

- Target Or System: recombinant human NaV1.8 stably transfected HEK cells (Homo sapiens)
- Construct: expressed in transfected cells; host or cells: HEK cells, stably transfected
- Experiment Notes: Compound profiling on NaV1.8, human NaV1.8 cell line, SyncroPatch384PE automated patch clamp assay (Example 115, third set of compounds, Table 27)
- Type: cell-based
- Particulars: inactivated state block (P2 measurement), human NaV1.8 HEK cells, Table 27 (third set of compounds), read-out: P2 IC50
pIC50: −log10 of the molar value.
Some molecules, each annotated with its measured pIC50.

COc1cc(F)ccc1Oc1nnc(C)cc1C(=O)Nc1cccc([S+](C)[O-])c1 (stereo not shown) : < 5.30
Cc1c[nH]c(=O)cc1NC(=O)c1cc(C(F)(F)F)nnc1Oc1ccc(F)cc1C : < 5.30

Now examine the next entry.
Which pIC50 is listed for COc1cc(F)ccc1Oc1nnc(C(F)(F)F)cc1C(=O)Nc1cccc(S(=O)(=O)C2CC2)c1 ? ≥ 6.70

* * *

- Target Or System: recombinant human NaV1.8 stably transfected HEK cells (Homo sapiens, UniProt Q9Y5Y9)
- Construct: expressed in transfected cells; host or cells: HEK cells, stably transfected
- Experiment Notes: Compound profiling on NaV1.8, human NaV1.8 cell line, SyncroPatch384PE automated patch clamp assay (Example 102, first set of compounds, Table 16)
- Assay type: cell-based
- Particulars: inactivated state block (P2 measurement), human NaV1.8 HEK cells, Table 16 (first set of compounds), read-out: P2IC50
pIC50: −log10 of the molar value.
Experimental Readout: pIC50

Cc1nc(C(F)(F)F)ccc1Oc1nnc(C(F)(F)F)c(C)c1C(=O)Nc1cccc(S(C)(=O)=O)c1 : ≥ 7.70

# next compound below
What value of pIC50 has been recorded for this entry: CS(=N)(=O)c1cccc(NC(=O)c2cc(C(F)(F)F)cnc2Oc2cccnc2OC(F)(F)F)c1 (stereo not shown) [Compound 1636] ≥ 7.70

* * *

Quick reference for IC50 among some compounds
- Target Or System: recombinant human NaV1.8 stably transfected HEK cells (Homo sapiens, UniProt Q9Y5Y9)
- Construct: expressed in transfected cells; host or cells: HEK cells, stably transfected
- Experiment Notes: Compound profiling on NaV1.8, human NaV1.8 cell line, SyncroPatch384PE automated patch clamp assay (Example 102, first set of compounds, Table 16)
- Assay type: cell-based
- Particulars: inactivated state block (P2 measurement), human NaV1.8 HEK cells, Table 16 (first set of compounds), read-out: P2IC50

Examples with answers:
CS(=O)(=O)c1cccc(NC(=O)c2cc(C(F)(F)F)cnc2Oc2ccc3c(c2)NC(=O)C3)c1 [Compound 1601] : 200 to 500 nM
Cc1c(C(F)(F)F)nnc(Oc2ccc(OC(C)C)c(F)c2F)c1C(=O)Nc1cccc(C(N)=O)c1 [Compound 1409] : ≤ 20 nM
Cn1cc(Oc2ncc(C(F)(F)F)cc2C(=O)Nc2cccc(S(C)(=O)=O)c2)cn1 [Compound 1610] : 200 to 500 nM
CS(=N)(=O)c1cccc(NC(=O)c2cc(C(F)(F)F)cnc2Oc2ccc(Br)cc2C2CC2)c1 (stereo not shown) [Compound 1648] : ≤ 20 nM
CS(=O)(=O)c1cccc(NC(=O)c2cc(C(F)(F)F)cnc2Oc2cc(OC(F)(F)F)ccc2F)c1 [Compound 1658] : 40 to 200 nM

Could you share which IC50 value was measured for CS(=N)(=O)c1cccc(NC(=O)c2cc(C(F)(F)F)cnc2OC2CC3C(C2)C3(F)F)c1 (stereo not shown) [Compound 1672] ? 200 to 500 nM

How about this compound: Cc1c(C(F)(F)F)nnc(Oc2ccc(OC(F)F)c(F)c2F)c1C(=O)Nc1cccc(S(C)(=N)=O)c1 (single isomer, unassigned) [Compound 1511] ≤ 20 nM

Next up: CS(=N)(=O)c1cccc(NC(=O)c2cc(C(F)(F)F)cnc2Oc2ccc(C(F)F)nc2)c1 (stereo not shown) [Compound 1674] 200 to 500 nM

Now consider COc1c(Oc2nnc(C(F)(F)F)c(C)c2C(=O)Nc2cccc(S(C)(=O)=O)c2)ccc(Cl)c1F [Compound 1552] . ≤ 20 nM

For Cc1cc(F)ccc1Oc1ncc(C(F)(F)F)cc1C(=O)Nc1cccc([S@@](C)(=O)=NC(=O)CN(C)C(=O)OC(C)(C)C)c1 [Compound 1719] then? ≤ 20 nM

Same thing, different compound: COc1nc(C)ccc1Oc1ncc(C(F)(F)F)cc1C(=O)Nc1cccc(S(C)(=O)=O)c1 [Compound 1608] ≤ 20 nM

Entry COc1cc(C#N)ccc1Oc1nnc(-c2ccccc2)c(C)c1C(=O)Nc1cccc(S(C)(=N)=O)c1 (stereo not shown) [Compound 1436] please 40 to 200 nM

What do you get for Cc1cc(C#N)ccc1Oc1nnc(C(F)(F)F)c(C)c1C(=O)Nc1cccc([S@](C)(=N)=O)c1 [Compound 1526] ? ≤ 20 nM

Would you mind doing CS(=N)(=O)c1cccc(NC(=O)c2cc(C(F)(F)F)cnc2OC2CC(C#N)C2)c1 (stereo not shown) [Compound 1665] as well? 200 to 500 nM

* * *

- Target Or System: recombinant human NaV1.8 stably transfected HEK cells (Homo sapiens)
- Construct: expressed in transfected cells; host or cells: HEK cells, stably transfected
- Experiment Notes: Compound profiling on NaV1.8, human NaV1.8 cell line, SyncroPatch384PE automated patch clamp assay (Example 102, first set of compounds, Table 16)
- Format: cell-based
- Particulars: resting state block (P1 measurement), human NaV1.8 HEK cells, Table 16 (first set of compounds), read-out: P1IC50
pIC50: −log10 of the molar value.
Item-by-item account of pIC50

Past entries and their recorded results:
COc1cc(C#N)ccc1Oc1nnc(-c2ccccc2F)c(C)c1C(=O)Nc1cccc(S(C)(=N)=O)c1 (stereo not shown) [Compound 1452] : 6.70 to 7.40
CCc1c(C(F)(F)F)nnc(Oc2ccc(F)cc2OC)c1C(=O)Nc1cccc([S@@](C)(=N)=O)c1 [Compound 1518] : ≥ 7.70

Can you share its pIC50? I mean this compound: COCCNS(=O)(=O)c1cccc(NC(=O)c2c(Oc3ccc(C#N)cc3OC)nnc(C(F)(F)F)c2C)c1 [Compound 1439] 6.70 to 7.40

Ok, now CS(=N)(=O)c1cccc(NC(=O)c2cc(C(F)(F)F)cnc2Oc2cnc(C(F)(F)F)nc2)c1 (stereo not shown) [Compound 1696] 6.30 to 6.70

* * *

- Target Or System: recombinant human NaV1.8 stably transfected HEK cells (Homo sapiens)
- Construct: expressed in transfected cells; host or cells: HEK cells, stably transfected
- Experiment Notes: Compound profiling on NaV1.8, human NaV1.8 cell line, SyncroPatch384PE automated patch clamp assay (Example 102, first set of compounds, Table 16)
- Type: cell-based
- Particulars: resting state block (P1 measurement), human NaV1.8 HEK cells, Table 16 (first set of compounds), read-out: P1IC50
pIC50: −log10 of the molar value.
Experimental Readout: pIC50

Take a look at these entries with their results.
CSc1cccc(NC(=O)c2cc(Br)cnc2Oc2ccc(F)cc2C)c1 [Compound 1577] : 6.30 to 6.70
COc1cc(C#N)ccc1Oc1nnc(-c2cccc(C#N)c2)c(C)c1C(=O)Nc1cccc(S(C)(=N)=O)c1 (stereo not drawn) [Compound 1451] : 6.30 to 6.70
NC(=O)c1cccc(NC(=O)c2cc(C(F)(F)F)cnc2Oc2cnc(C(F)(F)F)nc2)c1 [Compound 1695] : 6.30 to 6.70

Give recombinant human NaV1.8 stably transfected HEK cells (Homo sapiens) pIC50 for COc1ccc(-c2nnc(Oc3ccc(C#N)cc3OC)c(C(=O)Nc3cccc(S(C)(=N)=O)c3)c2C)cc1 (stereo not drawn) [Compound 1454] ≥ 7.70

Also need COc1nc(Br)ccc1Oc1ncc(C(F)(F)F)cc1C(=O)Nc1cccc(S(C)(=O)=O)c1 [Compound 1603] , thanks. ≥ 7.70

Can you check COc1cc(C#N)ccc1Oc1nc(C(F)(F)F)cc(C)c1C(=O)Nc1cccc([S@](C)(=N)=O)c1 [Compound 1730] next? ≥ 7.70

Try the compound CS(=O)(=O)c1cccc(NC(=O)c2cc(C(F)(F)F)cnc2Oc2ccc(F)c3cnccc23)c1 [Compound 1583] 7.40 to 7.70

How about this compound: Cc1c(C(F)(F)F)nnc(Oc2ccc(Cl)cc2)c1C(=O)Nc1cccc(S(C)(=N)=O)c1 (stereo not drawn) [Compound 22] 7.40 to 7.70

Now the compound COc1ccc(Oc2nnc(C(F)(F)F)c(C)c2C(=O)Nc2cccc(S(C)(=N)=O)c2)c(C)n1 (stereo not drawn) [Compound 1507] 6.70 to 7.40

Repeat for the following compound: COc1cc(F)ccc1Oc1ncc(C(F)(F)F)cc1C(=O)Nc1cccc(S(C)(=O)=O)c1 [Compound 1575] ≥ 7.70
